Items are presented alongside their recorded pKi.
- target: Proteasome Macropain subunit MB1 (Homo sapiens)
- Sequence (P28074 whole entry): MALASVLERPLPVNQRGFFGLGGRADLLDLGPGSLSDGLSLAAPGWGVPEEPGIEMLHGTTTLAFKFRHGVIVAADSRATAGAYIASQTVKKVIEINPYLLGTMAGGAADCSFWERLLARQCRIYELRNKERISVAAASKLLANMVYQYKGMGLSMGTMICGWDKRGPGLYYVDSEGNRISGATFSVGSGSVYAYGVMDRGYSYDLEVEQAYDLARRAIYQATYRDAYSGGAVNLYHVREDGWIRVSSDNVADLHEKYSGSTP
- assay.explanation: Irreversible inhibition of human 20S proteasome beta5 subunit using suc-LLVY-AMC as substrate after 4 hrs at 30 mins time interval by fluorescence assay
The value called pKi is obtained by taking minus log10 of the concentration in mol/L.

Some compounds with known pKi results, for comparison:
INSERT INTO assay_data (smiles_repr, measured_parameter, data_value) VALUES
  ('CCCCCC(=O)N[C@@H](C(=O)N[C@@H](CCCC)C(=O)N[C@@H](CC(C)C)C(=O)[C@@]1(C)CO1)C(C)C', 'pKi', 4.41),
  ('CCCCCC(=O)N[C@H](C(=O)N[C@@H](CCCC)C(=O)N[C@@H](CC(C)C)C(=O)[C@@]1(C)CO1)C(C)C', 'pKi', 5.43);

Then there is this compound:
Query: Quick one: give measured pKi for "CCCCCC(=O)N[C@H](C(=O)N[C@@H](CCS(C)(=O)=O)C(=O)N[C@@H](CC(C)C)C(=O)[C@@]1(C)CO1)C(C)C"
Response: 6.43

Data origin, for the record: ChEMBL document CHEMBL4038319
